target: Human immunodeficiency virus type 1 protease (Human immunodeficiency virus 1, UniProt Q72874)
Items are presented alongside their recorded Ki.
endpoint.label: Ki (nM)

>>> print(df.to_string())
                                   molecule  qualifier_symbol  result_number
0  COc1ccc(S(=O)(=O)N(C[C@@H](O)[C@H](Cc2ccccc2)NC(=O)OC(C)(C)C)Oc2ccccc2)cc1                 =             22
1  COc1ccc(S(=O)(=O)N(C[C@@H](O)[C@H](Cc2ccccc2)NC(=O)OC(C)(C)C)OCC2CCCCC2)cc1                 =             12
2  COc1ccc(S(=O)(=O)N(C[C@@H](O)[C@H](Cc2ccccc2)NC(=O)O[C@@H]2COC3OCCC32)OC2CCCC2)cc1 (some centres not stated)                 <          0.005
3  Nc1cccc(S(=O)(=O)N(C[C@@H](O)[C@H](Cc2ccccc2)NC(=O)O[C@H]2CO[C@H]3OCC[C@H]32)OC2CCCC2)c1                 <          0.005
4  O=C(N[C@@H](Cc1ccccc1)[C@H](O)CN(OC1CCCC1)S(=O)(=O)c1ccc2c(c1)OCCO2)O[C@H]1CO[C@H]2OCC[C@H]21                 <          0.005
5  O=C(N[C@@H](Cc1ccccc1)[C@H](O)CN(OC1CCCC1)S(=O)(=O)c1ccc2c(c1)OCO2)O[C@H]1CO[C@H]2OCC[C@H]21                 <          0.005
6  CCC(CC)ON(C[C@@H](O)[C@H](Cc1ccccc1)NC(=O)OC(C)(C)C)S(=O)(=O)c1ccc(OC)cc1                 =            3.2
